# Tested on: Burkholderia cepacia 1222
# assay.name: Agar plate multi-point inoculation, colour
# Assay type: cell-based
# run.parameters: Columbia agar, FAC 500 mg/L, substrate 300 mg/L, 37° C. 18 h in air
property.measured: Colour

O=C([O-])C1OC(Oc2cc3ccccc3cc2O)C(O)C(O)C1O.[Na+] [Compound 12b, DHN-β-D-glucuronide Sodium Salt] : −
OC[C@H]1O[C@@H](Oc2cc3ccccc3cc2O)C(O)C1O (stereo partly drawn) [Compound 2, DHN-β-D-ribofuranoside] : −
CC(=O)NC1C(Oc2cc3ccccc3cc2O)OC(CO)C(O)C1O [Compound 15, DHN-N-acetyl-β-D-glucosaminide] : −
OC[C@H]1O[C@@H](Oc2cc3cc(Br)c(Br)cc3cc2O)C(O)C1O (stereo partly drawn) [Compound 23, 6,7-Dibromo-DHN-β-D-ribofuranoside] : +/−

Consider the following items and state reported Colour for each.
1. OCC1OC(Oc2cc3cc(Br)c(Br)cc3cc2O)C(O)C(O)C1O [Compound 25, 6,7-Dibromo-DHN-β-D-galactopyranoside]
2. OCC1OC(Oc2cc3cc(Br)c(Br)cc3cc2O)C(O)C(O)C1O [Compound 27, 6,7-Dibromo-DHN-β-D-glucopyranoside]

1: +/−; 2: +

* * *

# System: Staphylococcus aureus (MRSA) NCTC 11939
# assay.name: Agar plate multi-point inoculation, colour
# Assay type: cell-based
# run.parameters: Columbia agar, FAC 500 mg/L, substrate 300 mg/L, 37° C. 18 h in air
Counter-ions that a name gives are not always drawn.
property.measured: Colour

Consider the reported Colour for these compounds:
OC[C@H]1O[C@@H](Oc2cc3cc(Br)c(Br)cc3cc2O)C(O)C1O (stereo partly drawn) [Compound 23, 6,7-Dibromo-DHN-β-D-ribofuranoside] : −
CCCCCCCC(=O)Oc1cc2ccccc2cc1OC(=O)CCCCCCC [Compound 16, DHN-dicaprylate] : −
OCC1OC(Oc2cc3ccccc3cc2O)C(O)C(O)C1O [Compound 6, DHN-α-D-glucopyranoside] : +/−
OCC1OC(Oc2cc3ccccc3cc2O)C(O)C(O)C1O [Compound 4, DHN-β-D-glucopyranoside] : −
O=C(O)C1OC(Oc2cc3ccccc3cc2O)C(O)C(O)C1O [Compound 12a, DHN-β-D-glucuronide CHA Salt] : −

Consider the following items and state reported Colour for each.
1. OCC1OC(Oc2cc3cc(Br)c(Br)cc3cc2O)C(O)C(O)C1O [Compound 27, 6,7-Dibromo-DHN-β-D-glucopyranoside]
2. OC[C@H]1O[C@@H](Oc2cc3ccccc3cc2O)C(O)C1O (stereo partly drawn) [Compound 2, DHN-β-D-ribofuranoside]
3. OCC1OC(Oc2cc3ccccc3cc2O)C(O)C(O)C1O [Compound 8, DHN-β-D-galactopyranoside]
4. CC(=O)NC1C(Oc2cc3ccccc3cc2O)OC(CO)C(O)C1O [Compound 15, DHN-N-acetyl-β-D-glucosaminide]
5. OCC1OC(Oc2cc3ccccc3cc2O)C(O)C(O)C1O [Compound 10, DHN-α-D-galactopyranoside]
6. O=C(O)C1OC(Oc2cc3cc(Br)c(Br)cc3cc2O)C(O)C(O)C1O [Compound 29, 6,7-Dibromo-DHN-β-D-glucuronide CHA Salt]
7. O=C([O-])C1OC(Oc2cc3ccccc3cc2O)C(O)C(O)C1O.[Na+] [Compound 12b, DHN-β-D-glucuronide Sodium Salt]
8. OCC1OC(Oc2cc3cc(Br)c(Br)cc3cc2O)C(O)C(O)C1O [Compound 25, 6,7-Dibromo-DHN-β-D-galactopyranoside]

Tr.
+
−
−
−
−
−
−

Look up Colour for this compound: O=P([O-])([O-])Oc1cc2ccccc2cc1O.[Na+].[Na+] [Compound 17, DHN-phosphate Disodium Salt] +

* * *

# System: Serratia marcescens NCTC 10211
# assay.name: Agar plate multi-point inoculation, colour
# Assay type: cell-based
# run.parameters: Columbia agar, FAC 500 mg/L, substrate 300 mg/L, 37° C. 18 h in air
property.measured: Colour

OCC1OC(Oc2cc3ccccc3cc2O)C(O)C(O)C1O [Compound 8, DHN-β-D-galactopyranoside] : +
OCC1OC(Oc2cc3ccccc3cc2O)C(O)C(O)C1O [Compound 4, DHN-β-D-glucopyranoside] : ++
CCCCCCCC(=O)Oc1cc2ccccc2cc1OC(=O)CCCCCCC [Compound 16, DHN-dicaprylate] : +
OCC1OC(Oc2cc3ccccc3cc2O)C(O)C(O)C1O [Compound 6, DHN-α-D-glucopyranoside] : ++
CC(=O)NC1C(Oc2cc3ccccc3cc2O)OC(CO)C(O)C1O [Compound 15, DHN-N-acetyl-β-D-glucosaminide] : ++

Consider the following items and state reported Colour for each.
1. O=C([O-])C1OC(Oc2cc3ccccc3cc2O)C(O)C(O)C1O.[Na+] [Compound 12b, DHN-β-D-glucuronide Sodium Salt]
2. OCC1OC(Oc2cc3cc(Br)c(Br)cc3cc2O)C(O)C(O)C1O [Compound 27, 6,7-Dibromo-DHN-β-D-glucopyranoside]

["−", "++"]

* * *

# System: Enterococcus faecium NCTC 7171
# assay.name: Agar plate multi-point inoculation, colour
# Assay type: cell-based
# run.parameters: Columbia agar, FAC 500 mg/L, substrate 300 mg/L, 37° C. 18 h in air
property.measured: Colour

OCC1OC(Oc2cc3cc(Br)c(Br)cc3cc2O)C(O)C(O)C1O [Compound 27, 6,7-Dibromo-DHN-β-D-glucopyranoside] : +/−
CCCCCCCC(=O)Oc1cc2ccccc2cc1OC(=O)CCCCCCC [Compound 16, DHN-dicaprylate] : −
OCC1OC(Oc2cc3ccccc3cc2O)C(O)C(O)C1O [Compound 8, DHN-β-D-galactopyranoside] : Tr.
OC[C@H]1O[C@@H](Oc2cc3ccccc3cc2O)C(O)C1O (stereo partly drawn) [Compound 2, DHN-β-D-ribofuranoside] : −

* * *

# System: Enterococcus faecium NCTC 7171
# assay.name: Agar plate multi-point inoculation, colour
# Type: cell-based
# run.parameters: Columbia agar, FAC 500 mg/L, substrate 300 mg/L, 37° C. 18 h in air
property.measured: Colour

Consider the reported Colour for these compounds:
OCC1OC(Oc2cc3ccccc3cc2O)C(O)C(O)C1O [Compound 4, DHN-β-D-glucopyranoside] : +
OC[C@H]1O[C@@H](Oc2cc3cc(Br)c(Br)cc3cc2O)C(O)C1O (stereo partly drawn) [Compound 23, 6,7-Dibromo-DHN-β-D-ribofuranoside] : −
CC(=O)NC1C(Oc2cc3ccccc3cc2O)OC(CO)C(O)C1O [Compound 15, DHN-N-acetyl-β-D-glucosaminide] : ++
OCC1OC(Oc2cc3ccccc3cc2O)C(O)C(O)C1O [Compound 10, DHN-α-D-galactopyranoside] : −
O=C([O-])C1OC(Oc2cc3ccccc3cc2O)C(O)C(O)C1O.[Na+] [Compound 12b, DHN-β-D-glucuronide Sodium Salt] : −

Consider the following items and state reported Colour for each.
1. OCC1OC(Oc2cc3ccccc3cc2O)C(O)C(O)C1O [Compound 6, DHN-α-D-glucopyranoside]
2. OCC1OC(Oc2cc3cc(Br)c(Br)cc3cc2O)C(O)C(O)C1O [Compound 25, 6,7-Dibromo-DHN-β-D-galactopyranoside]

Tr.
+/−

* * *

# Test system: Listeria monocytogenes NCTC 11994
# assay.name: Agar plate multi-point inoculation, colour
# Format: cell-based
# run.parameters: Columbia agar, FAC 500 mg/L, substrate 300 mg/L, 37° C. 18 h in air
property.measured: Colour

Consider the reported Colour for these compounds:
OCC1OC(Oc2cc3ccccc3cc2O)C(O)C(O)C1O [Compound 4, DHN-β-D-glucopyranoside] : +
OCC1OC(Oc2cc3ccccc3cc2O)C(O)C(O)C1O [Compound 6, DHN-α-D-glucopyranoside] : ++
O=C([O-])C1OC(Oc2cc3ccccc3cc2O)C(O)C(O)C1O.[Na+] [Compound 12b, DHN-β-D-glucuronide Sodium Salt] : −
OC[C@H]1O[C@@H](Oc2cc3cc(Br)c(Br)cc3cc2O)C(O)C1O (stereo partly drawn) [Compound 23, 6,7-Dibromo-DHN-β-D-ribofuranoside] : −

Consider the following items and state reported Colour for each.
1. OCC1OC(Oc2cc3cc(Br)c(Br)cc3cc2O)C(O)C(O)C1O [Compound 27, 6,7-Dibromo-DHN-β-D-glucopyranoside]
2. OC[C@H]1O[C@@H](Oc2cc3ccccc3cc2O)C(O)C1O (stereo partly drawn) [Compound 2, DHN-β-D-ribofuranoside]
3. CC(=O)NC1C(Oc2cc3ccccc3cc2O)OC(CO)C(O)C1O [Compound 15, DHN-N-acetyl-β-D-glucosaminide]

+/−
−
++

* * *

# Tested on: Escherichia coli NCTC 10418
# assay.name: Agar plate multi-point inoculation, colour
# Type: cell-based
# run.parameters: Columbia agar, FAC 500 mg/L, substrate 300 mg/L, 37° C. 18 h in air
property.measured: Colour

CC(=O)NC1C(Oc2cc3ccccc3cc2O)OC(CO)C(O)C1O [Compound 15, DHN-N-acetyl-β-D-glucosaminide] : −
OC[C@H]1O[C@@H](Oc2cc3ccccc3cc2O)C(O)C1O (stereo partly drawn) [Compound 2, DHN-β-D-ribofuranoside] : ++
OCC1OC(Oc2cc3ccccc3cc2O)C(O)C(O)C1O [Compound 8, DHN-β-D-galactopyranoside] : ++
OCC1OC(Oc2cc3ccccc3cc2O)C(O)C(O)C1O [Compound 6, DHN-α-D-glucopyranoside] : +
